- Tested target: Hb in normal whole blood (Homo sapiens, UniProt P68871+P69905)
- Construct: Normal whole blood was collected from adult donors at the Virginia Commonwealth University; endogenous in cells; host or cells: erythrocytes in normal adult human whole blood (hematocrit 20%)
- Sequence (P69905 2-142 limits assumed): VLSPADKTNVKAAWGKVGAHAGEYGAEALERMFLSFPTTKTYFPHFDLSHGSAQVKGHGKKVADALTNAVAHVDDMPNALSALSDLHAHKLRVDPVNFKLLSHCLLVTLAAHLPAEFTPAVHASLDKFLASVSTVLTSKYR
- Sequence (P68871 2-147 limits assumed): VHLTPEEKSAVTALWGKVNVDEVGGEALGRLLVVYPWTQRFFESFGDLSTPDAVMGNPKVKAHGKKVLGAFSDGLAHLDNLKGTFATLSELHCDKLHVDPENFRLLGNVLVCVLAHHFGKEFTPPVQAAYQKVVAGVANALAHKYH
- Method: Oxygen equilibrium curve (OEC) study in normal whole blood, multipoint tonometry
- Type: cell-based
- Reported conditions: hematocrit 20%, 2 mM compound, 1.5 h at 37° C.
Measure name: OEC effect (increase of Hb affinity for oxygen, left shift) (%)

>>> df
                                   molecule                             tested_target  display_unit  recorded_result
0  C=C(CC)C(=O)c1ccc(OCC(=O)O)c(Cl)c1Cl [Ethacrynic Acid, ethacrynic acid, reference compound]  Hb in normal whole blood (Homo sapiens, UniProt P68871+P69905)             %             21.3
1  COc1ccc(C(=O)/C=C/c2ncc[nH]2)cc1 [KAUS-38]  Hb in normal whole blood (Homo sapiens, UniProt P68871+P69905)             %               14
2  COc1cccc(C(=O)/C=C/c2ncc[nH]2)c1 [KAUS-29]  Hb in normal whole blood (Homo sapiens, UniProt P68871+P69905)             %               14

1 = O=C(/C=C/c1ncc[nH]1)c1ccc(OC2CCCCO2)cc1 (centres unmarked) [KAUS-33]
2 = O=C(O)CCCOc1ccc(C(=O)/C=C/c2ncc[nH]2)cc1Cl [KAUS-15, reference compound]
Input line: Which record would sort first by descending OEC effect (increase of Hb affinity for oxygen, left shift), 1 or 2 ? // caller expects the label of the chosen entry
Output line: 1
